- Tested on: SNB-75 CNS
- TEST METHOD NOTES: NCI tumour cell line growth inhibition, 48 h
So I've got a bunch of molecules here, and I need their TGI values.

Give reported TGI value for "O=C(O)c1cc(N=Nc2ccc([N+](=O)[O-])cc2)ccc1O"
> 100 µM

Give reported TGI value for "O=C(Nc1ccccc1[N+](=O)[O-])/C(=N/Nc1cccc(Cl)c1)c1c(O)c2ccccc2oc1=O"
> 100 µM

Give reported TGI value for "N#C/C(=C\c1ccc(O)c(O)c1)c1c(C#N)c(N)nn1-c1ccccc1"
> 100 µM

Give reported TGI value for "Nc1nc(Cl)cc(NCC2(CO)CCCCC2)n1"
> 100 µM

Give reported TGI value for "CCOC(=O)/C(=C/CC/C(C)=C/CC/C(C)=C/CCc1ccoc1)CC(=O)N1CCCCC1"
35.3 µM

Give reported TGI value for COc1ccccc1C1C2=C(COC2=O)Oc2cc3c(cc21)OCO3 (stereo unspecified)
21.9 µM

Give reported TGI value for "COc1ccc2[nH]c3cc4c(=O)c5cc(OC)ccc5[nH]c4cc3c(=O)c2c1"
67.5 µM

Give reported TGI value for "CCn1cnc(C[C@H](NC(=O)[C@H](CCCCNC(=O)Nc2cc(C(F)(F)F)cc(C(F)(F)F)c2)NC(=O)Nc2cc(C(F)(F)F)cc(C(F)(F)F)c2)C(=O)OC)c1"
> 10 µM

Give reported TGI value for "O=C1c2ccccc2N=C(c2cc3c(cc2Cl)Sc2nccn2S3(=O)=O)OS(=O)(=O)N1c1ccccc1"
46.1 µM

Give reported TGI value for "O=C1NC(=O)C(C(=O)C(=O)Nc2cc(Cl)ccc2Cl)C(=O)N1"
> 100 µM

Give reported TGI value for "Oc1ccc(NC(=S)Nc2ccccc2)cc1"
> 100 µM

Give reported TGI value for CC(C)C[S+]1C2=C([O-])CC(C)(C)CC2=Nc2ccccc21 (stereo unspecified)
> 100 µM

Give reported TGI value for CC1(CO)C(O)CCC2(C)C1CCC1CC3CC12CCC3(O)CO (stereo unspecified)
> 100 µM

Give reported TGI value for "CC(=N/NC(=S)N1CCCCCC1)/C(C)=N\NC(=S)N1CCCCCC1"
10.9 µM

Give reported TGI value for "CCOC(=O)Oc1cc2ccsc2c2c1c1ccccc1n2C(=O)OCC"
> 100 µM

Give reported TGI value for "COc1ccccc1-n1cnc(N)c1C(=O)c1cc(OC)c(OC)c(OC)c1"
9.3 µM

Give reported TGI value for "C1=N[C@]23C(=N[C@H](N=C2NCc2ccco2)[C@]24N=CNC2=N[C@H]3N=C4NCc2ccco2)N1"
> 100 µM

Give reported TGI value for "Oc1ccc(-c2c3ccccc3c(-c3ccc(O)cc3)c3ccccc23)cc1"
> 100 µM

Give reported TGI value for CCOC(=O)C1(CC(=O)O)CCCC1=O (stereo unspecified)
> 100 µM

Give reported TGI value for O=CC(OC(=O)c1ccccc1)C(OC(=O)c1ccccc1)C(COC(c1ccccc1)(c1ccccc1)c1ccccc1)OC(=O)c1ccccc1 (stereo unspecified)
22.9 µM

Give reported TGI value for "CC1=C(C(=O)Nc2cccc(Cl)c2)C(c2ccccc2O)C(C(=O)Nc2cccc(Cl)c2)=C(C)N1"
43 µM

Give reported TGI value for O=S(=O)(C1=CC(S(=O)(=O)c2ccccc2)COC1)c1ccccc1 (stereo unspecified)
> 100 µM

Give reported TGI value for "COC(=O)[C@H](CNC(=O)/C=C/c1ccc(OC(C)=O)c(OC(C)=O)c1)NC(=O)/C=C/c1ccc(OC(C)=O)c(OC(C)=O)c1"
> 100 µM

Give reported TGI value for "Cc1ccc(S(=O)(=O)NC(=O)C2S(=O)(=O)OCCOS2(=O)=O)cc1"
> 100 µM

Give reported TGI value for "NC(N)=NN=c1c(=O)c2ccccc2c1=O"
23.7 µM

Give reported TGI value for Cc1ccc(S(=O)(=O)N(CC(O)COc2ccccc2)c2c(F)c(F)cc(F)c2F)cc1 (stereo unspecified)
42.6 µM

Give reported TGI value for CCCCC(C(=O)C(=O)Nc1ccc(C)cc1C)C(=O)C(C)C (stereo unspecified)
> 100 µM

Give reported TGI value for Cc1cccc(C(C)(C)C)c1NC(=O)C(C#N)C1=C(Cl)C(=O)c2ccccc2C1=O (stereo unspecified)
27.6 µM

Give reported TGI value for "O=C(NC1CCN(Cc2ccccc2)CC1)c1cc(-c2cccnc2)nc2ccc(Cl)cc12"
12.7 µM

Give reported TGI value for "O=c1oc2ccc([N+](=O)[O-])cc2nc1/C=C(\O)c1ccccc1"
> 100 µM

Give reported TGI value for "COc1ccc(-n2cc(-c3cc(OC)c(OC)c(OC)c3)nc2SCc2ccc(Cl)cc2)cc1OC"
> 100 µM

Give reported TGI value for "C/C(=C1/N=C(c2cc([N+](=O)[O-])ccc2Cl)N(c2ccc(Br)cc2)C1=O)c1ccc(N(CCC#N)CCC#N)cc1C"
> 100 µM

Give reported TGI value for "C/C(NNC(=O)c1ccccc1O)=C1\C=Nc2ccccc2S1"
43.8 µM

Give reported TGI value for "Cn1c(N/N=C/c2ccccc2)nc(-c2ccc3c(c2)OCO3)c(C#N)c1=O"
> 100 µM

Give reported TGI value for COC(=O)C1OC(O[C@H]2CC[C@]3(C)[C@H]4CC=C5[C@@H]6CC(C)(C)CC[C@]6(C(=O)OC)CC[C@@]5(C)[C@]4(C)CC[C@H]3C2(C)C)C(O)C(O)C1O (stereo partly specified)
31.1 µM

Give reported TGI value for COC(=O)C(=O)C(CC(=O)Nc1cc(Cl)ccc1Cl)C(=O)OC (stereo unspecified)
> 100 µM
